tested on: JEG-3; assay: Primary qHTS to identify gynecologic anti-cancer compounds using libraries of approved drugs and bioactive compounds (AID 1345084); conditions: Gynecologic cancer cell panel viability, ATPlite luminescence, 48 h; series mostly up to 57.5 µM; also: % is scaled to controls: 0 for no effect and ±100 for the full control effect; nearly all actives have a fitted effect of over 55% in size
Results filed as inconclusive are left out. The source made the active and inactive calls. Calls follow the shape of the dose curve; as a rule, active = well fitted cell-killing curve with a large enough effect; inconclusive = small, poorly fitted or top-dose-only effect, or effect the other way; inactive = flat fitted curve, though single readings scatter.
RECORDED ENDPOINT: activity change, negative = cytotoxicity

MOLECULE	RECORDED RESULT
CC(=O)O[C@@H]1[C@H](O[C@@H]2OC[C@](O)(CO)[C@H]2O)[C@@H](O[C@@H]2O[C@@H](C)[C@H](O)[C@@H](O[C@@H]3O[C@H](CO)[C@@H](O)[C@H](O)[C@H]3O)[C@H]2O)[C@H](OC(=O)[C@]23CCC(C)(C)C[C@H]2C2=CCC4[C@@]5(C)C[C@H](O)[C@H](O[C@@H]6O[C@H](C(=O)O)[C@@H](O)[C@H](O)[C@H]6O)[C@@](C)(C(=O)O)C5CC[C@@]4(C)[C@]2(C)CC3)O[C@@H]1C (stereo partly specified)	-1.98% [at 6.55 µM] (inactive)
CCOC(=O)CSc1nc2c(sc3ccccc32)c(=O)n1CCCN1CCCC1	inactive
CC1=CC2=C(C)C(=O)[C@](C)(O)[C@H](O)C2=CO1	inactive
CC(=O)OC1CCC2(C)C(CCC3(C)C2CC=C2C4CC(C)(C)CCC4(C)CCC23C)C1(C)C(=O)O (stereo unspecified)	inactive
O=C(O)CC1CCC(c2ccc(NC(=O)c3nnc(Nc4ccc(F)c(F)c4)o3)cc2)CC1 (stereo unspecified)	inactive
O=C(c1c2ccccc2cc2ccccc12)N1CCC(N2CCC[C@@H](C(=O)N3CCOCC3)C2)CC1	inactive

* * *

assay: Primary fluorescence-based thiol-reactive (MSTI) qHTS assay for identification of artifact compounds. (AID 1845221); conditions: MSTI thiol-reactivity probe, 1 h; series mostly up to 53.8 µM; also: nearly all actives have a fitted effect of over 65% in size; also: potency is read from the fitted curve at half-maximal effect
Inconclusive results are not listed. Calls of active or inactive are those of the source. Calls follow the shape of the dose curve; as a rule, active = well fitted inhibition curve with a large enough effect; inconclusive = small, poorly fitted or top-dose-only effect; inactive = no such curve, though single readings can be large or run the other way.
RECORDED ENDPOINT: Potency

COMPOUND	RECORDED RESULT
COc1ccccc1Oc1c(NS(=O)(=O)c2ccc(C)cn2)nc(-c2ccncc2)nc1OC	inactive
CCC(C)C(N)C(=O)NCCN1CCOCC1 (centres undefined)	inactive
CC(C)(O)/C=C/C(=O)[C@](C)(O)[C@H]1[C@H](O)C[C@@]2(C)[C@@H]3CC=C4[C@@H](C=C(O[C@@H]5O[C@H](CO)[C@@H](O)[C@H](O)[C@H]5O)C(=O)C4(C)C)[C@]3(C)C(=O)C[C@]12C	inactive
COc1c(-c2ccc(O)cc2)cc(OC)c2c1oc1cc(O)c(OC3OC(CO)C(O)C3O)cc12 (centres undefined)	4.62 µM (active)

* * *

test: Primary qHTS for inhibitors of nuclear receptor binding SET domain protein 2 (NSD2) in an RCH-ACV wild type WT cells (2C) (AID 1645877); conditions: RCH-ACV (leukaemia line) NSD2 WT (2C) viability, CellTiter-Glo, 72 h; series mostly up to 44.9 µM; also: nearly all actives have a fitted effect of over 70% in size; as to activity change, negative = cell killing: % is scaled to controls: 0 for no effect and ±100 for the full control effect
Inconclusive results are not listed. The source made the active and inactive calls. Calls come from the whole dose curve; as a rule, active = well fitted inhibition curve with a large enough effect; inconclusive = small, poorly fitted or top-dose-only effect; inactive = no such curve, though single readings can be large or run the other way.
RECORDED ENDPOINT: activity change, negative = cell killing

COMPOUND	RECORDED RESULT
CC(=O)OCC1OC(O[C@H]2CC[C@]34C[C@]35CC(O)[C@]3(C)[C@@H]([C@H](C)CC/C=C(\C)C(=O)O)C(O)C[C@@]3(C)C5CC[C@H]4C2(C)C)C(O)C(O)C1OC1OCC(O)C(O)C1O (stereo partly drawn)	-13.7% [at 9.23 µM] (inactive)
C[C@@H]1O[C@@H](O[C@H]2[C@H](Oc3cc(O)c(C(=O)CCc4ccc(O)cc4)c(O)c3)O[C@H](CO)[C@@H](O)[C@@H]2O)[C@H](O)[C@H](O)[C@H]1O	inactive
CC1(C)Oc2ncnc(N)c2N=C1c1ccc(C2CCC(CC(=O)O)CC2)cc1 (stereo not drawn)	inactive

* * *

tested on: CRL-7250; assay: Cytotoxic Profiling of Annotated Libraries Using Quantitative High-Throughput Screening (AID 1296008); settings: Five cell lines viability, CellTiter-Glo ATP luminescence, 48-72 h; hits give low values; also: % is scaled to controls: 0 for no effect and ±100 for the full control effect; nearly all actives have a fitted effect of over 60% in size
Inconclusive results are not listed.

COMPOUND	max response [%]
O=C(C[C@@H]1C(C(=O)O)=CO[C@@H](O[C@@H]2O[C@H](CO)[C@@H](O)[C@H](O)[C@H]2O)/C1=C\CO)OCCc1ccc(O)cc1	1.31
COc1c(C)c(OCC(O)C(C)(C)O)cc2c1CNC2=O (stereo not given)	2.44
COC(=O)C1=CO[C@@H](O[C@@H]2O[C@H](CO)[C@@H](O)[C@H](O)[C@H]2O)[C@@H]2C(C)CC(=O)[C@]12O (stereo not given in full)	4.9
CC(C)=CCC[C@](C)(O[C@@H]1O[C@H](CO[C@@H]2O[C@@H](CO)[C@H](O)[C@H]2O[C@@H]2OC[C@@H](O)[C@H](O)[C@H]2O)[C@@H](O)[C@H](O)[C@H]1O)[C@H]1CC[C@]2(C)[C@@H]1[C@H](O)CC1[C@@]3(C)CC[C@H](O[C@@H]4O[C@H](CO)[C@@H](O)[C@H](O)[C@H]4O[C@@H]4O[C@H](CO)[C@@H](O)[C@H](O)[C@H]4O)C(C)(C)C3CC[C@]12C (stereo not given in full)	4.19
C=CCc1ccc(O[C@@H]2O[C@H](CO)[C@@H](O)[C@H](O)[C@H]2O)c(O[C@@H]2O[C@H](CO)[C@@H](O)[C@H](O)[C@H]2O)c1	-3.11

* * *

system: CRL-7250; assay: Cytotoxic Profiling of Annotated Libraries Using Quantitative High-Throughput Screening (AID 1296008); conditions: Five cell lines viability, CellTiter-Glo ATP luminescence, 48-72 h; hits give low values; also: % is scaled to controls: 0 for no effect and ±100 for the full control effect; nearly all actives have a fitted effect of over 60% in size
Inconclusive results are not listed.
Item-by-item account of max response
RECORDED ENDPOINT: max response (%)

COMPOUND	RECORDED RESULT
C=C1CCC2(OC1)OC1CC3C4CC=C5CC(O)CC(O[C@@H]6OC[C@H](OC(=O)C(O)C(C)CC)[C@H](O)[C@H]6O[C@@H]6O[C@@H](C)[C@H](O)[C@@H](O)[C@H]6O)C5(C)C4CCC3(C)C1C2C (stereo not given in full)	-2.78
CSCC1OC(n2cnc3c(=O)[nH]cnc32)C(O)C1O (stereo not given)	-7.17
CC(C)=CCC[C@](C)(O[C@@H]1O[C@H](CO)[C@@H](O)[C@H](O)[C@H]1O)[C@H]1CC[C@]2(C)[C@@H]1[C@H](O)CC1[C@@]3(C)CC[C@H](O)C(C)(C)C3[C@@H](O[C@@H]3O[C@H](CO)[C@@H](O)[C@H](O)[C@H]3O[C@@H]3O[C@@H](C)[C@H](O)[C@@H](O)[C@H]3O)C[C@]12C (stereo not given in full)	-1.6
CC1OC(O[C@@H]2[C@@H](O)[C@H](OC(=O)[C@]34CCC(C)(C)C[C@H]3C3=CCC5[C@@]6(C)CC[C@H](O[C@@H]7O[C@H](C(=O)O)[C@@H](O)[C@H](O[C@@H]8OC[C@@H](O)[C@H](O)[C@H]8O)[C@H]7O[C@@H]7O[C@H](CO)[C@H](O)[C@H](O)[C@H]7O)[C@@](C)(C=O)C6CC[C@@]5(C)[C@]3(C)C[C@H]4O)O[C@H](C)[C@@H]2OC2OC(C)C(OC3OCC(O)C(O)C3O)C(O)C2O)C(O)C(O)C1O (stereo not given in full)	4.06
Cc1cccc(-c2nn3c(c2-c2ccnc4ccc(C(N)=O)cc24)CCC3)n1	1.85

* * *

molecular target: Cytochrome P450 2C9 (Homo sapiens); assay: Cytochrome P450 family 2 subfamily C member 9 (CYP2C9) small molecule antagonists: luciferase biochemical (cell-free) qHTS assay (AID 1645842); details: P450-Glo CYP2C9 enzyme assay, luciferin luminescence; series mostly up to 57.4 µM; also: nearly all actives have a fitted effect of over 55% in size
Records with an inconclusive call do not appear. Calls of active or inactive are those of the source. The call rests on the fitted dose curve; in most records, active means well fitted inhibition curve with a large enough effect in the repeat runs; inconclusive means weak or mixed curves; inactive means no such curve, though single readings can be large or run the other way.
Classes used: active, inactive

>>> df
                                   molecule  classification
0  CCCNCCOc1ccc(NC(=O)c2c[nH]c3c2C(=O)CCC3)cc1F        inactive
1  CCOc1ccc(-c2nn3ncccc3c2-c2ccc(S(C)(=O)=O)cc2)cc1          active
2  CC(C)[C@@](O)(c1ccc2cc(OC(F)F)c(OC(F)F)cc2c1)c1cn[nH]n1          active
3  O=C(Nc1cc(-c2ccccc2)nn1-c1ccccc1)c1ccc([N+](=O)[O-])cc1          active
4  O=C(O)[C@H](Cc1ccccc1)Oc1ccc(-c2ccccc2)cc1          active
5  Cc1nc2ccccc2c(-c2ccc3c4c(ccnc24)CCO3)c1[C@H](OC(C)(C)C)C(=O)O        inactive
6  Cc1ccc2[nH]c(=O)c(C3=NN(C(=O)CCC(=O)O)C(c4ccc(Br)cc4)C3)c(-c3ccccc3)c2c1 (stereo not given)          active
7  Oc1ccc2c(-c3c(-c4ccccn4)nn4c3CCC4)ccnc2c1        inactive
8  CC(C)(C)NS(=O)(=O)c1ccc(-c2ccc3[nH]nc(N)c3c2)cc1          active
9          N#Cc1cccc(-c2nc(-c3cccnc3)no2)c1          active
